# measurement_target: Metabotropic glutamate receptor 8 (Rattus norvegicus) (UniProt P70579)
# Sequence (P70579 whole entry, looked up): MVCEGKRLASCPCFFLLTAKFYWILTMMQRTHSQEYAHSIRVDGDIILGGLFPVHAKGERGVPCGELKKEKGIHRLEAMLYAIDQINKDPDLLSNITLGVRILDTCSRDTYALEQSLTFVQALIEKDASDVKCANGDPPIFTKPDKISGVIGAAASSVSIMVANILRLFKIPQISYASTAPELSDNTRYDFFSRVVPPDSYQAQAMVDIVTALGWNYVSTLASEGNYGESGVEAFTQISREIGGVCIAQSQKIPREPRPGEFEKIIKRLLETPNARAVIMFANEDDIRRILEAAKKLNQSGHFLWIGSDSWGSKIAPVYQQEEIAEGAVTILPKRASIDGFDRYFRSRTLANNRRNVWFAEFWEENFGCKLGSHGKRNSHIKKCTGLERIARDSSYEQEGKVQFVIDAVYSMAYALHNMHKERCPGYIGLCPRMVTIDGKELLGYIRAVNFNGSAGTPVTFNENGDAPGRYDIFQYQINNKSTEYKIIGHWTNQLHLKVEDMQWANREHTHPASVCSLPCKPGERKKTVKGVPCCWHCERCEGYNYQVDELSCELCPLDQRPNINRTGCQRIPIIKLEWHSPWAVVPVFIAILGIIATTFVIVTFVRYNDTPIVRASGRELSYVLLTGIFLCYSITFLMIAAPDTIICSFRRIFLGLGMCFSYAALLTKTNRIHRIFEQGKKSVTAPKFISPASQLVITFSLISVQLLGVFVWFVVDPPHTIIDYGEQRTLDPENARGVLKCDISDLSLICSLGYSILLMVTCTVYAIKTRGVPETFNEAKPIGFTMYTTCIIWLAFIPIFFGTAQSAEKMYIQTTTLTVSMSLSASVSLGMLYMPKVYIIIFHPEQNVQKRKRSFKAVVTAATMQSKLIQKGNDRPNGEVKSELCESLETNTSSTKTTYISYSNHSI
# experimental_protocol: mGluR8 Gi/Go-coupled signaling modulation – cell-based, rat, thallium flux, HTS, primary screen (AID 488969)
# study_conditions: HEK293 rat mGluR8, GIRK (G protein-gated inwardly rectifying potassium channel) thallium flux, FluoZin2; at 10 µM; stronger effect = higher value; submaximal glutamate (EC20) added with thallium
In all, about 110,000 compounds were measured (“z-score”: median about -0.1, highest 2% from about 2 on). The sample holds the highest values, similar compounds and a random draw of the others, so the mix is not that of the screen.
Assign yes whenever z-score does not fall below 0.3; assign no whenever it does.

Take a look at these entries with their results.
| molecule | class |
| --- | --- |
| COc1ccc(NS(=O)(=O)c2c(C)n(C)c(=O)n(C)c2=O)cc1OC | no |
| O=C(CSc1nnnn1-c1cccc2c1CCCC2)NC1CCCC1 | yes |
| CC1CCC(n2c(=S)[nH]c3ccccc3c2=O)CC1 (centres undefined) | yes |
| Cc1ccc(S(=O)(=O)Nc2cc(C(F)(F)F)ccc2N2CCOCC2)cc1 | no |
| Cc1ccc(NC2=C(CC(=O)O)C(c3ccccc3)N(c3ccc(C)cc3)C2=O)cc1 (centres undefined) | no |

Reported z-score at or above 0.3? O=c1c2ccccc2[nH]c(=S)n1C1CCCCC1
yes

Reported z-score at or above 0.3? O=c1c2[nH]c3ccccc3c2ncn1C1CCCCC1
no

Reported z-score at or above 0.3? Cc1c(-n2c(=S)[nH]c3ccccc3c2=O)c(=O)n(-c2ccccc2)n1C
no
